// provenance: the Kinase Knowledgebase extract (Sharma et al. 2016)

# assayed system: UniProt P42336
# assay explanation: Assessment of PIK3CA Kinase Activity in NZOV9 Cells
pIC50: −log10 of the molar value.
property measured: pIC50

Known pIC50 results, listed for orientation:
INSERT INTO measurements (chem_smiles, property_measured, measured_result) VALUES
  ('Cc1c([N+](=O)[O-])cccc1S(=O)(=O)N(C)N=Cc1cnn2ccc(C#N)cc12', 'pIC50', '< 4.70'),
  ('CN(C)c1ccc([N+](=O)[O-])cc1S(=O)(=O)N(C)N=Cc1cnn2ccc(C#N)cc12', 'pIC50', 7.00),
  ('Cc1cc([N+](=O)[O-])ccc1S(=O)(=O)N(C)N=Cc1cnn2ccc(C#N)cc12', 'pIC50', '< 4.70');

Recorded pIC50 (compound Cc1ccc(C(=O)O)cc1S(=O)(=O)N(C)N=Cc1cnn2ccc(C#N)cc12 ): < 4.70

Recorded pIC50 (compound CC(=O)Nc1ccc(C)c(S(=O)(=O)N(C)N=Cc2cnn3ccc(C#N)cc23)c1 ): < 4.70

Recorded pIC50 (compound Cc1ccc([N+](=O)[O-])cc1C(=O)N(C)N=Cc1cnn2ccc(C#N)cc12 ): < 4.70

====

A collection of compounds and their measured IC50
# assayed system: PIK3CA (human) (UniProt P42336)
# Sequence (P42336 whole entry, looked up): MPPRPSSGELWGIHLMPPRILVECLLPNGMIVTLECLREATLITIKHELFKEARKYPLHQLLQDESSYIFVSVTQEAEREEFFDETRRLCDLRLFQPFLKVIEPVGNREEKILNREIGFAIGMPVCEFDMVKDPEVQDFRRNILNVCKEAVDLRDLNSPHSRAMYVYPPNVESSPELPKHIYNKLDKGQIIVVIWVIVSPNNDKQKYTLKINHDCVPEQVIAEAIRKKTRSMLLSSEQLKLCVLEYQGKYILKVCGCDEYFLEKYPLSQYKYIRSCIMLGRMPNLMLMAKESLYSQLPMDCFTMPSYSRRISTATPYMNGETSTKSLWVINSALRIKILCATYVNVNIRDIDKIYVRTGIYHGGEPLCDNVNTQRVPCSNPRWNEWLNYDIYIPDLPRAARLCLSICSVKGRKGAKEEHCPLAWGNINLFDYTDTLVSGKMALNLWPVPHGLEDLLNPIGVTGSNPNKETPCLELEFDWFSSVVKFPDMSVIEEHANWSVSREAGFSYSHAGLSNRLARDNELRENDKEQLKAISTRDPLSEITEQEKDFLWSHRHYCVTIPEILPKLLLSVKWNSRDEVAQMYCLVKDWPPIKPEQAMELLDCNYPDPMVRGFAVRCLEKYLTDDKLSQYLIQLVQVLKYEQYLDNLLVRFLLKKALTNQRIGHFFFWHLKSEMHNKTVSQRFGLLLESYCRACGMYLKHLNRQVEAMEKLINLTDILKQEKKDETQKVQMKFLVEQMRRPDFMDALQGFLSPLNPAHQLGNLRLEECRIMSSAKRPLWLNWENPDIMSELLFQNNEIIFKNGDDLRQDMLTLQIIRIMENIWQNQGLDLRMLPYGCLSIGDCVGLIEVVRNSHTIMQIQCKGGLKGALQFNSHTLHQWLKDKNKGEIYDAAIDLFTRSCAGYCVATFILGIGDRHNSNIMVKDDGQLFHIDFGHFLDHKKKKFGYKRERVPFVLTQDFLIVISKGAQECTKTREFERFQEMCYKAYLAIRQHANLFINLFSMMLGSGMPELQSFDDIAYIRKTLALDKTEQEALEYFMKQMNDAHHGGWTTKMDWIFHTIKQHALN
# assay explanation: Assessment of PIK3CA Kinase Activity in NZB5 Cells

Known IC50 results, listed for orientation:
INSERT INTO measurements (chem_smiles, measured_result) VALUES
  ('Cc1ccccc1S(=O)(=O)N(C)N=Cc1cnn2ccc(C#N)cc12', '> 20 µM'),
  ('Cc1ccc(F)cc1S(=O)(=O)N(C)N=Cc1cnn2ccc(C#N)cc12', '> 20 µM'),
  ('CC(=O)Nc1ccc(C)c(S(=O)(=O)N(C)N=Cc2cnn3ccc(C#N)cc23)c1', '> 20 µM'),
  ('Cc1ccc(C(=O)O)cc1S(=O)(=O)N(C)N=Cc1cnn2ccc(C#N)cc12', '> 20 µM'),
  ('Cc1ccc([N+](=O)[O-])cc1C(=O)N(C)N=Cc1cnn2ccc(C#N)cc12', '> 20 µM'),
  ('Cc1cc([N+](=O)[O-])ccc1S(=O)(=O)N(C)N=Cc1cnn2ccc(C#N)cc12', '> 20 µM');

--- query ---
Recorded IC50 (compound Cc1c([N+](=O)[O-])cccc1S(=O)(=O)N(C)N=Cc1cnn2ccc(C#N)cc12 ): > 20 µM
